# melting point values compiled below

Please review the following examples before continuing.
{"molecule": "CCOC(=O)NC(=S)SCC", "melting point": "60 °C"}
{"molecule": "O=C(c1ccccc1)c1ccc([N+](=O)[O-])c(F)c1", "melting point": "77 to 79 °C"}
{"molecule": "CC12CCC(OC(=O)C(F)(F)F)CC1=CCC1=C2CCC2(C)C(=O)CCC12 (configuration not stated)", "melting point": "109 to 115 °C"}
{"molecule": "Clc1ccc(-n2nc3c(c2Cl)CCCCC3)cc1", "melting point": "59 to 61 °C"}
{"molecule": "Cc1nccn1CC1CCC(Nc2ccccc2I)=CC1=O (configuration not stated)", "melting point": "88 to 100 °C"}

Which measured melting point value corresponds to COc1cc2ncnc(N3CCC(CI)CC3)c2cc1OC ? 180 to 182 °C

Also need O=C(O)Cc1cccc(OCc2ccc3ccccc3n2)c1 , thanks. 128 to 130 °C

Also need CS(=O)(=O)c1ccc(C2=C(Br)C(=O)C3(CCCCC3)O2)cc1 , thanks. 163 to 164 °C

Also need CCSCC#Cc1cc(F)c2ncc(C(=O)NCc3ccc(Cl)cc3)c(O)c2c1 , thanks. 232 to 233 °C

====

# melting point values compiled below

Please review the following examples before continuing.
{"compound": "CCOC(=O)c1c[nH]c2cc(OC)c(OC)cc2c1=O", "melting point": "275 to 285 °C"}
{"compound": "CCCC(CCC)n1c(CC)nc2c1C(=O)N(C)C(C)N2c1ccc(Cl)cc1Cl (stereo unspecified)", "melting point": "144 to 146 °C"}
{"compound": "COc1cc(C=O)ccc1OCCCCl", "melting point": "53 to 55 °C"}
{"compound": "CCN(CC)CCOC(=O)c1cnc2ccn(-c3cccc(Cl)c3)n2c1=O", "melting point": "153 to 154 °C"}
{"compound": "Cc1oc(-c2ccccc2)nc1CCOc1cccc(-c2cccc(OC3(C(=O)O)CCC3)c2)c1", "melting point": "127 °C"}

Which measured melting point value corresponds to CC1(C)OC(c2ccc(S(C)(=O)=O)c(F)c2)=C(c2ccc(N)cc2)C1=O ? 199 to 200 °C

Also need O=C(O)c1cc(Br)c(O)c(Br)n1 , thanks. 195 to 197 °C

Also need CCC(CO)(CO)CBr , thanks. 78 to 80 °C

Also need CC(C)(C)c1cccc(S(=O)(=O)n2c(Cc3ccc(C(=O)O)cc3)cc3ccc(C(F)(F)F)cc32)c1 , thanks. 199 °C

Also need COC(=O)C1(C(=O)OC)CCC(c2c(-c3ccccc3)n(C)c3ccccc23)CC1 , thanks. 134 to 135 °C

Also need O=[N+]([O-])c1cccc(-n2cnnc2C(F)(F)F)c1 , thanks. 142 °C

Also need COCOc1cc(OC)ccc1C(=O)O , thanks. 96 to 97 °C

Also need c1ccc2c(c1)cc1n2CC2(CC1)CO2 (stereo unspecified) , thanks. 104 to 107 °C

Also need CC(C)OC(=O)N1CCC(c2nc3cc(-c4ccc(-n5cnnn5)cc4F)ccc3o2)CC1 , thanks. 168 to 171 °C

Also need COC1(OC)CC2CC[C@@]1(CS(=O)(=O)N(C(C)C)C(C)C)C2(C)C , thanks. 73.8 to 74.6 °C

Also need OCCCCOc1nc(F)c(Cl)cc1Cl , thanks. 38 to 39 °C

Also need N#Cc1ccc(-c2ccc(O)c(C(F)(F)F)c2)cc1 , thanks. 201 to 203 °C

Also need CCOC(=O)Cn1c2cccccc-2c(C(N)=O)c1=O , thanks. 215 to 220 °C

Also need CC(C)(C)OC(=O)c1cc2ccccc2[nH]1 , thanks. 104 to 105 °C

====

# melting point values compiled below

Please review the following examples before continuing.
{"compound": "COc1ccc(C2=NN(c3ccccn3)C(=O)[C@H]3CC=CC[C@@H]23)cc1OC (relative stereo)", "measurement": "147 to 148 °C"}
{"compound": "O=C(c1cc(O)ccc1Nc1ccncc1)N1CCCCC1", "measurement": "242 to 243 °C"}
{"compound": "COc1ccc(C(=O)Nc2nc3ccc([N+](=O)[O-])cc3c(NCc3cccs3)c2C#N)cc1", "measurement": "217 to 220 °C"}
{"compound": "O=C(O)CCC1CCCC2CCC(=O)NC12 (centres undefined)", "measurement": "95 to 97 °C"}
{"compound": "O=C(O)c1c2n(c3cc(N4CCNCC4)c(F)cc3c1=O)C(c1ccccc1)S2 (centres undefined)", "measurement": "200 to 205 °C"}

Which measured melting point value corresponds to CON(C)C(=O)c1sc(SC)c2c1CCc1sc(-c3ccccc3)nc1-2 ? 157 to 158 °C

Also need CCCCCCCCCCCCCCCCCc1nnc(CO)n1-c1sc(CC)cc1C(=O)c1ccc(C)cc1 , thanks. 68 to 69 °C

Also need CCCN1CC(c2cccc(Cl)c2)=C(c2ccc(S(C)(=O)=O)cc2)C1=O , thanks. 148 to 149 °C

Also need CC(C)(O)CCCCCc1ccc(CCc2cc(O)cc(O)c2)cc1 , thanks. 128 to 130 °C

====

# melting point values compiled below

{"compound": "CCN(Cc1ccccc1OCc1ccccc1)c1ccc(C(=O)O)cc1", "measurement": "165 °C"}
{"compound": "CC(C)(CCCCOc1ccc(NC(=O)CCCn2ccnc2)cc1)C(=O)O", "measurement": "150 °C"}
{"compound": "C=CCNc1nc(Cl)nc2c1ncn2CC=C", "measurement": "110 to 112 °C"}

Switching to the query record.
Which measured melting point value corresponds to CC(C)=Cn1ccnc1[N+](=O)[O-] ? 77 to 79 °C

====

# melting point values compiled below

Please review the following examples before continuing.
{"compound": "O=[N+]([O-])c1cccc2c(Cl)c(Br)cnc12", "measurement": "135 to 136 °C"}
{"compound": "COc1ccccc1N1CCN(C(=O)CCCCN2CC=C(c3c[nH]c4cc(F)ccc34)CC2)CC1", "measurement": "78 to 81 °C"}
{"compound": "CCOC(=O)Cc1csc(-c2cc3cccc(NS(=O)(=O)c4cccs4)c3[nH]2)n1", "measurement": "161 to 162 °C"}

Switching to the query record.
Which measured melting point value corresponds to O=C(c1ccc2c(c1)sc(=O)n2CCOc1ccc(CC(OCC(F)(F)F)C(=O)O)cc1)C1CC1 (centres undefined) ? 124 to 128 °C

====

# melting point values compiled below

{"molecule": "C=C(COc1ccccc1C=NO)c1ccccc1", "melting point": "61 to 62 °C"}
{"molecule": "C[Si]1(C)CCCCCC[Si](C)(C)O[Si](C)(C)CCCCCC[Si](C)(C)O1", "melting point": "48 to 50 °C"}
{"molecule": "Fc1cccc(F)c1C1=NC(c2ccc(OCc3ccc4ccccc4c3)cc2)CO1 (stereo not given)", "melting point": "148 to 150 °C"}
{"molecule": "N#Cc1cccc2c1CCc1ccsc1-2", "melting point": "74.5 to 75 °C"}
{"molecule": "CC(=O)Nc1nccc(Oc2ccc3c(C(=O)Nc4cccc(C(F)(F)F)c4)cccc3c2)n1", "melting point": "216 to 217 °C"}

Which measured melting point value corresponds to CC(C)C(NC(=O)C(Cc1ccccc1)NC(=O)c1ccc(NS(=O)(=O)c2ccc(C(C)(C)C)cc2)cc1)C(=O)Nc1n[nH]c(=S)s1 (stereo not given) ? 140 to 144 °C

Also need Nc1ccc(NCCO)c(S(=O)(=O)CCO)c1 , thanks. 130 °C

Also need COc1ccc(-c2c(/C=C\C(=O)O)cnn2C)cc1 , thanks. 205 to 206 °C

Also need COc1cccc(C2=C(C#N)C(c3ccccc3[N+](=O)[O-])c3c[nH]nc3N2)c1 (stereo not given) , thanks. 220 °C

Also need N#CCN(CP(=O)(Oc1ccccc1)Oc1ccccc1)N=O , thanks. 76 to 78 °C

Also need CC1(C)C(=O)Nc2ccc(N)cc21 , thanks. 185 to 191 °C

Also need CNc1nc(NS(=O)(=O)c2ccc(N)cc2)cc(N2CCCC2)n1 , thanks. > 300 °C

Also need Cc1cc2c(cc1C13CC1CCC3=Cc1ccc(C(=O)O)cc1)C(C)(C)CCC2(C)C (stereo not given) , thanks. 274 to 275 °C

Also need C[C@@H]1Cc2ccsc2[C@H](C)N1CCNC(=O)c1c(F)c(F)c(F)c(F)c1F (relative stereo) , thanks. 116 to 119 °C

Also need O=C(c1ccccc1)c1ccc(OCCCCNS(=O)(=O)c2ccc(Br)cc2)cc1 , thanks. 71 to 73 °C

====

# melting point values compiled below

Please review the following examples before continuing.
{"molecule": "COc1ccc2c3c1c(C)c(-c1ccc(O)cc1)n3CC(CCO)O2 (centres undefined)", "measurement": "190 °C"}
{"molecule": "CCC1CC(=O)N(Cc2ccc(NS(C)(=O)=O)cc2)N=C1c1ccc(OC)c(OC)c1 (centres undefined)", "measurement": "81 °C"}
{"molecule": "COc1ccc2c(c1)C(=O)NC(C(Cl)(Cl)Cl)O2 (centres undefined)", "measurement": "162 to 165 °C"}

Which measured melting point value corresponds to CCCCCCCCCCCCCCNC(=O)Oc1ccc([N+](=O)[O-])cc1OC(=O)NCCCCCCCCCCCCCC ? 100 to 104 °C

Also need COc1ccc(CCOc2ccc(NC(=O)c3cc(F)cc(N4CCCCC4)c3)c3ccccc23)cc1OC , thanks. 158 to 160 °C

Also need CN1Cc2c(S(=O)(=O)Cl)cc3[nH]c(=O)c(=O)[nH]c3c2C1 , thanks. > 300 °C

Also need CCOC(=O)C1=C(C)Nc2ccccc2NC1c1cccc([N+](=O)[O-])c1 (centres undefined) , thanks. 148 to 150 °C

Also need NS(=O)(=O)c1cc2cccnc2s1 , thanks. 223 to 225 °C

Also need COC(=O)c1ccc(Cc2c(C(=O)OC)n(-c3ccccc3)c3nc(C)ccc3c2=O)cn1 , thanks. 177 to 178 °C
